# EXPERIMENTAL DETAILS: non-covalent RecA intein splicing inhibitors, dose response, biochemical, cell-free, fluorescence, secondary screen (AID 449750)
Activity calls are given as the source filed them. No rule for the calls is given here.
Possible outcomes: TRUE (active), FALSE (inactive)

MOLECULE | CAT
CC1=NN(c2ccccc2)C(=O)C1=C(C)C | TRUE
Cc1ccccc1NC1=C(Cl)C(=O)OC1OC(=O)c1ccco1 (stereo unspecified) | FALSE
COc1ccc2nc(SCC(=O)NN)cc(C)c2c1 | FALSE
CC1=NN(c2ccc(Cl)cc2)C(=O)C1C(c1cccc(O)c1)c1c(C)[nH]n(-c2ccc(Cl)cc2)c1=O (stereo unspecified) | TRUE
CN1C=C/C(=C\c2cc[n+](C)c3ccccc23)c2ccccc21 | TRUE
O=C1/C(=C/c2ccc(F)cc2)SC(=S)N1CC(=O)N1CCCCC1c1cccnc1 (stereo unspecified) | TRUE
O=C(NC1(O)C(=O)c2ccccc2C1=O)c1c(Cl)cccc1Cl | TRUE
Oc1c(Cl)cc(Cl)c(Cl)c1Cc1c(O)c(Cl)cc(Cl)c1Cl | TRUE
Cc1ccc(C(=O)NC2(O)C(=O)c3ccccc3C2=O)cc1C | TRUE
Fc1ccc(Nc2nc(NCc3ccco3)c3ccccc3n2)cc1 | TRUE
O=C(Nc1ccccc1)Nc1ccc(O)c2ccccc12 | TRUE

====

# EXPERIMENTAL DETAILS: non-covalent RecA intein splicing inhibitors, dose response, biochemical, cell-free, fluorescence, secondary screen (AID 449750)
Activity calls are given as the source filed them. How the calls were made is not given here.
Consider the following compounds and their measured AC50 readings.

COMPOUND | AC50
O=c1[nH]cc(O)c(=O)[nH]1 | 7.38 µM
CC(=O)NC(=S)c1c(N)n(Cc2ccccc2)c(=O)n(C)c1=O | > 38 µM (inactive)
CC1=NN(c2ccccc2)C(=O)/C1=C/c1cn(C)c2ccccc12 | > 38 µM (inactive)
Clc1ccc(CSC(Cn2ccnc2)c2ccc(Cl)cc2Cl)cc1 (stereo not drawn) | 8.47 µM
Cc1nc2c(=O)n(C)c(=O)n(C)c2nc1Cl | > 38 µM (inactive)
CCOc1cc(/C=C(/C#N)C(=O)Nc2ccc(O)cc2)cc(Br)c1O | > 38 µM (inactive)
CCOc1cc(/C=C2\C(=O)N(CCC#N)N=C2C)ccc1OCC(N)=O | 12.6 µM
COc1cc(C(c2c(C)[nH][nH]c2=O)c2c(C)[nH][nH]c2=O)ccc1OCc1ccc([N+](=O)[O-])cc1 | 6.41 µM
O=C(c1ccc(N2CCN(CCO)CC2)nc1)N1CCOCC1 | > 38 µM (inactive)
Cc1[nH]nc2c1C(c1ccco1)C(C#N)=C(N)O2 (stereo not drawn) | > 38 µM (inactive)
O=C1NC(c2ccc(-c3ccccc3[N+](=O)[O-])o2)C(C(=O)c2ccc(F)cc2)C(O)(C(F)(F)F)N1 (stereo not drawn) | 34.4 µM
Cc1[nH]nc2c1C1(CCC3(CC1)OCCO3)C(C#N)=C(N)O2 | > 38 µM (inactive)
CCc1nnc(NC(=O)c2nc(S(=O)(=O)Cc3ccccc3)ncc2Cl)s1 | 31.2 µM
Cc1cc(-c2[nH]nc3c2C(c2ccsc2)C(C#N)=C(N)O3)c(C)s1 (stereo not drawn) | 13.6 µM
CCOC(=O)C1=C(O)c2ccccc2C(=O)/C1=C\c1ccc(CC)cc1 | 7.05 µM
COCc1[nH]nc2c1C1(CCSCC1)C(C#N)=C(N)O2 | > 38 µM (inactive)
Nc1ccc2c(c1)C(=O)C(=O)c1ccccc1-2 | 17.6 µM
Nc1ccccc1S(=O)(=O)NC1=NCCCCC1 | > 38 µM (inactive)
COc1ccc(C2=NN(c3ccccc3)C(=O)/C2=C\c2ccc(O)c(OC)c2)cc1 | 3.62 µM
Cc1cc(C(=O)Cn2ncc(Cl)c(Cl)c2=O)c(C)n1CC(F)(F)F | > 38 µM (inactive)
CCCc1[nH]nc2c1C(c1ccccc1OC)C(C#N)=C(N)O2 (stereo not drawn) | > 38 µM (inactive)
O=C(O)c1ccc2c3c(ncnc13)-c1ccccc1C2=O | 7.47 µM
CCC(C)NC(=O)c1c(N)n(Cc2ccc3c(c2)OCO3)c2nc3ccccc3nc12 (stereo not drawn) | 26.7 µM
CC(C)c1ccc(S(=O)(=O)/N=C2\C=C(NS(=O)(=O)c3ccccc3)C(=O)c3ccccc32)cc1 | 6.05 µM
O=c1[nH]c(Nc2ccccc2)cc2ccccc12 | 1.68 µM
CC1=NN(c2ccc(Cl)cc2)C(=O)C1 | 3.71 µM
CCCC(=O)OCCNc1cc(Sc2nccn2C)c2nonc2c1[N+](=O)[O-] | > 38 µM (inactive)
O=[N+]([O-])c1cc(Br)c(Nc2ccccc2)c([N+](=O)[O-])c1 | 7.02 µM
CS(=O)(=O)C1=NSC2=NC(=O)/C(=C\c3ccc(OC(=O)c4ccco4)cc3)C(=N)N21 | > 38 µM (inactive)
CC(=O)Nc1ccc(NC(=O)c2nc(S(=O)(=O)Cc3ccccc3)ncc2Cl)cc1 | > 38 µM (inactive)
CN(CCc1cnn(C)c1)C(=O)C1CCC(=O)N(CC2CCCCC2)C1 (stereo not drawn) | > 38 µM (inactive)
COc1cc(Cc2nccc3cc(OC)c(OC)cc23)c(S(=O)(=O)O)cc1OC | > 38 µM (inactive)
CCCCCCN(C(=O)CCl)c1ccccc1 | 3.5 µM
COc1ccc(-c2cc(CNC(=O)CCl)on2)cc1 | 16.1 µM
N#CC1=C(N)Oc2n[nH]c(-c3cccs3)c2C1c1cccs1 (stereo not drawn) | 9.22 µM
CCOC(=O)c1ccc(NC2=CC(=O)C(=O)c3ccccc32)cc1 | > 38 µM (inactive)
CC1=NNC(=O)/C1=C\c1cn(-c2ccccc2)nc1-c1cccs1 | 9.64 µM
Cc1[nH][nH]c(=O)c1C(c1ccc(-c2ccc(Cl)c(Cl)c2)o1)c1c(C)[nH][nH]c1=O | 3.11 µM
Cc1cccc(N(Cc2cc(=O)[nH]c3ccccc23)C(=O)CCl)c1 | 6.83 µM
O=C1CCCC2=C1C(c1ccc3c(c1)OCO3)c1c([nH]n(-c3ccccc3)c1=O)N2 (stereo not drawn) | 6.7 µM
CCN(Cc1ccccc1)S(=O)(=O)c1ccc(C(=O)N(CCCN(C)C)c2nc3cc(C)cc(C)c3s2)cc1 | 15.1 µM
Cc1cc(C(=O)c2ccccc2)c(NC(=O)CCl)s1 | 7.09 µM
COc1cc(/C=N/NC(=S)Nc2cccc(Cl)c2C)ccc1OCC(=O)N1CC(C)OC(C)C1 (stereo not drawn) | > 38 µM (inactive)
